Tested on: Enterococcus faecalis
Experiment: Antibacterial activity against Vancomycin-resistant Enterococcus faecalis SR7914 (VanA) assessed as inhibition of bacterial growth incubated for 20 hrs by microdilution broth method
Type: functional
Conditions: SR7914, 20 h
Would you kindly list MIC for each of these compounds?
Numbers only, in µg/mL.

Ask | Look up MIC with Enterococcus faecalis for this compound: CCCCCCCCCCNCCN[C@@]1(C)C[C@H](O[C@H]2[C@H](Oc3c4cc5cc3Oc3ccc(cc3Cl)[C@@H](O)[C@@H](NC(=O)[C@@H](CC(C)C)NC)C(=O)N[C@@H](CC(N)=O)C(=O)N[C@H]5C(=O)N[C@H]3C(=O)N[C@H](C(=O)N[C@H](C(=O)O)c5cc(O)c(CNCP(=O)(O)O)c(O)c5-c5cc3ccc5O)[C@H](O)c3ccc(c(Cl)c3)O4)O[C@H](CO)[C@@H](O)[C@@H]2O)O[C@@H](C)[C@H]1O
Reply | 4

Continuing:
Ask | Recorded MIC for CCCCCC/C=C\CCCCC[C@@H]1C[C@H]1/C=C/C(O)C(=O)N[C@H](C(=O)N(C)[C@@H](CC(=O)O)C(=O)N(COC(C)(CC)C(NC(=O)C(NC(=O)[C@@H](N)CC(=O)O)C(O)C(O)CNC(=N)N)C(=O)NCC(=O)N[C@@H](CO)C(=O)O)[C@@]12C[C@@H]1CN(C(=N)N)C2=O)[C@H](O)C(=O)O (some centres undefined) with Enterococcus faecalis, please?
Reply | 0.016
